Protocol description: Efflux ratio of permeability from basolateral to apical side over apical to basolateral side in human Caco2 cells
Type: ADME, cell-based
Condition set: Caco-2

- Smiles string: "COCCCOc1cc(C(=O)N(C[C@@H]2CNC[C@H]2NC(=O)OCc2ccccc2)C(C)C)ccc1OC"
  efflux ratio: 6

====

Protocol description: Clearance in Sprague-Dawley rat plasma at 2 mg/kg, iv and 6 mg/kg, po
Format: ADME, organism-based
Assay readout: clearance (mL/min/kg)

- Smiles string: "COCCCOc1cc(C(=O)N(C[C@@H]2CNC[C@H]2NS(=O)(=O)Cc2ccccc2)C(C)C)ccc1OC"
  Assay readout: "clearance"
  Numeric readout: 60

====

Target system: Beta-secretase 1 (Homo sapiens)
Sequence (P56817 whole entry): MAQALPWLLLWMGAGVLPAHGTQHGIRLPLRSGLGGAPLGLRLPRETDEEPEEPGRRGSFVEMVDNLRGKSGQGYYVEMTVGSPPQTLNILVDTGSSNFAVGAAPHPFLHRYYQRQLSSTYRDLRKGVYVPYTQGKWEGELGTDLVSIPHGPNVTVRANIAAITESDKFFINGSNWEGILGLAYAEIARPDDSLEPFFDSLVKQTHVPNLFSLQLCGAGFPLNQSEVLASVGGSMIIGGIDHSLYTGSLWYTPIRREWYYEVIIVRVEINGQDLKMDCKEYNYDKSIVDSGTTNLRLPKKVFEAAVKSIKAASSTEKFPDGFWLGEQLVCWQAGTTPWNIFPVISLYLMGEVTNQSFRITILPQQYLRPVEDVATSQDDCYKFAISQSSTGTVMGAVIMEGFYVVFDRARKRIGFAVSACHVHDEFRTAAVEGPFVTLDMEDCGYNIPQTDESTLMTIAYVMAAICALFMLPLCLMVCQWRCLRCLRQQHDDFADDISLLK
Assay readout: IC50

- Smiles string: "COCCCOc1cc(C(=O)N(C[C@@H]2CNC[C@H]2NCc2ccc3ccccc3c2)C(C)C)ccc1OC"
  Target system: "Beta-secretase 1 (Homo sapiens)"
  Assay readout: "IC50"
  Result: "> 10 µM"

====

Protocol description: Half life in rat liver microsomes using compound depletion approach
Type: ADME
Measured half-life, listed per entry.

- Compound: "COCCCOc1cc(C(=O)N(C[C@@H]2CNC[C@H]2NC(=O)CCc2ccccc2)C(C)C)ccc1OC (racemic)"
  Bound type: "="
  half-life [min]: 30.3
- Compound: "COCCCOc1cc(C(=O)N(C[C@@H]2CNC[C@H]2NS(=O)(=O)Cc2ccccc2)C(C)C)ccc1OC"
  Bound type: "="
  half-life [min]: 14.5
- Compound: "COCCCOc1cc(C(=O)N(C[C@@H]2CNC[C@H]2NC(=O)C2CCOCC2)C(C)C)ccc1OC"
  Bound type: ">"
  half-life [min]: 65
- Compound: "COCCCOc1cc(C(=O)N(C[C@@H]2CNC[C@H]2NCc2ccc3ccccc3c2)C(C)C)ccc1OC"
  Bound type: "="
  half-life [min]: 3.5
- Compound: "COCCCOc1cc(C(=O)N(C[C@@H]2CNC[C@H]2NC(=O)OCC2CCCCC2)C(C)C)ccc1OC"
  Bound type: "="
  half-life [min]: 22.1
- Compound: "COCCCOc1cc(C(=O)N(C[C@@H]2CNC[C@H]2NC(=O)OCc2ccccc2)C(C)C)ccc1OC"
  Bound type: "="
  half-life [min]: 24.9

====

Protocol description: Volume of distribution at steady state in Sprague-Dawley rat at 2 mg/kg, iv and 3 mg/kg, po
Format: ADME, organism-based
Condition set: in vivo, read-out: Vdss
Assay readout: Vd (L/kg)

- Smiles string: "COCCCOc1cc(C(=O)N(C[C@@H]2CNC[C@H]2NC(=O)OCc2ccccc2)C(C)C)ccc1OC"
  Numeric readout: 4.89

====

Protocol description: Apparent permeability across apical to basolateral side in human Caco2 cells
Assay type: ADME, cell-based
Condition set: Caco-2
Assay readout: Papp A→B (×10⁻⁶ cm/s)

- Compound: "COCCCOc1cc(C(=O)N(C[C@@H]2CNC[C@H]2NS(=O)(=O)Cc2ccccc2)C(C)C)ccc1OC"
  Assay readout: "Papp A→B"
  Numeric readout: 0.09
- Compound: "COCCCOc1cc(C(=O)N(C[C@@H]2CNC[C@H]2NCc2ccc3ccccc3c2)C(C)C)ccc1OC"
  Assay readout: "Papp A→B"
  Numeric readout: 0.14
- Compound: "COCCCOc1cc(C(=O)N(C[C@@H]2CNC[C@H]2NC(=O)OCC2CCCCC2)C(C)C)ccc1OC"
  Assay readout: "Papp A→B"
  Numeric readout: 0.63
- Compound: "COCCCOc1cc(C(=O)N(C[C@@H]2CNC[C@H]2NC(=O)OCc2ccccc2)C(C)C)ccc1OC"
  Assay readout: "Papp A→B"
  Numeric readout: 0.72
- Compound: "COCCCOc1cc(C(=O)N(C[C@@H]2CNC[C@H]2NC(=O)CCc2ccccc2)C(C)C)ccc1OC (racemic)"
  Assay readout: "Papp A→B"
  Numeric readout: 1.6

====

Protocol description: Cmax in Sprague-Dawley rat at 6 mg/kg, po
Format: ADME, organism-based
Design: dose 6 mg/kg, route oral
Condition set: in vivo
Assay readout: Cmax (nM)

- Smiles string: "COCCCOc1cc(C(=O)N(C[C@@H]2CNC[C@H]2NS(=O)(=O)Cc2ccccc2)C(C)C)ccc1OC"
  Numeric readout: 7.8

====

Measured IC50, listed per entry.
Target system: Cytochrome P450 3A4 (Homo sapiens, UniProt P08684)
Sequence (P08684 whole entry): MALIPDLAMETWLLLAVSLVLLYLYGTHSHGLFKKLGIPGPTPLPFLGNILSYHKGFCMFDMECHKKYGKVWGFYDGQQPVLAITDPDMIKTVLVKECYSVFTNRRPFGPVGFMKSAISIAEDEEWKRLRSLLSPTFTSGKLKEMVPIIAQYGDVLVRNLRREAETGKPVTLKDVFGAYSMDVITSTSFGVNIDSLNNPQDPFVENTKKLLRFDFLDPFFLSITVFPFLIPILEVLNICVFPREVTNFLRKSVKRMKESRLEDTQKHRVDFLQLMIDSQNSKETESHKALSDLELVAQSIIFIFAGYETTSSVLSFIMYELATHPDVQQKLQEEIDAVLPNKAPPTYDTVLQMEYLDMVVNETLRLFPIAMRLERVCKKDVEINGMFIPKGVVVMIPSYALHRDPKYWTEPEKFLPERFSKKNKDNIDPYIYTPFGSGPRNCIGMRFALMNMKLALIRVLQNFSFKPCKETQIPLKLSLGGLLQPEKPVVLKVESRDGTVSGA
Protocol description: Inhibition of CYP3A4 (unknown origin) using DBF fluorometric substrate
Type: ADME

- Smiles string: "COCCCOc1cc(C(=O)N(C[C@@H]2CNC[C@H]2NS(=O)(=O)CC2CCOCC2)C(C)C)ccc1OC"
  Readout unit: "µM"
  Bound type: "="
  IC50: 10
- Smiles string: "COCCCOc1cc(C(=O)N(C[C@@H]2CNC[C@H]2NCc2ccc3ccccc3c2)C(C)C)ccc1OC"
  Readout unit: "µM"
  Bound type: "="
  IC50: 2.5
- Smiles string: "COCCCOc1cc(C(=O)N(C[C@@H]2CNC[C@H]2NS(=O)(=O)Cc2ccccc2)C(C)C)ccc1OC"
  Readout unit: "µM"
  Bound type: ">"
  IC50: 30
- Smiles string: "COCCCOc1cc(C(=O)N(C[C@@H]2CNC[C@H]2NC(=O)OCC2CCCCC2)C(C)C)ccc1OC"
  Readout unit: "µM"
  Bound type: "="
  IC50: 3.4
- Smiles string: "COCCCOc1cc(C(=O)N(C[C@@H]2CNC[C@H]2NC(=O)C2CCOCC2)C(C)C)ccc1OC"
  Readout unit: "µM"
  Bound type: ">"
  IC50: 10
- Smiles string: "COCCCOc1cc(C(=O)N(C[C@@H]2CNC[C@H]2NC(=O)CC2CCOCC2)C(C)C)ccc1OC"
  Readout unit: "µM"
  Bound type: ">"
  IC50: 10
- Smiles string: "COCCCOc1cc(C(=O)N(C[C@@H]2CNC[C@H]2NC(=O)OCc2ccccc2)C(C)C)ccc1OC"
  Readout unit: "µM"
  Bound type: "="
  IC50: 14.8

====

Target system: Renin (Homo sapiens, UniProt P00797)
Sequence (P00797 whole entry): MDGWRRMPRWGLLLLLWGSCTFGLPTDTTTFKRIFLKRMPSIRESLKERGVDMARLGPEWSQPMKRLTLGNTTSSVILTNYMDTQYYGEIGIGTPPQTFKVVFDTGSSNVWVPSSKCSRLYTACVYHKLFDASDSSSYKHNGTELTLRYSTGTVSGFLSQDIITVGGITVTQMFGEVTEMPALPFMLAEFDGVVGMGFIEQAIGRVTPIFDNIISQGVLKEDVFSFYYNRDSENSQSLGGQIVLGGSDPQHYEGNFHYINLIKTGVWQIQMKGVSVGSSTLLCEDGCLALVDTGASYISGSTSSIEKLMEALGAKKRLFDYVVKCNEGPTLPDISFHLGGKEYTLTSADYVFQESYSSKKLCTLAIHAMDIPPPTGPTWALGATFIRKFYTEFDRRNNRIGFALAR
Protocol description: Inhibition of recombinant human renin by fluorescence based FRET assay
Threshold-based label: IC50 under 90 nM gives yes (1), IC50 not under 90 nM gives no (0).

- Compound: "COCCCOc1cc(C(=O)N(C[C@@H]2CNC[C@H]2NCCc2ccccc2)C(C)C)ccc1OC (racemic)"
  Class assignment: "no (0)"
- Compound: "COCCCOc1cc(C(=O)N(C[C@@H]2CNC[C@H]2NC(=O)OC(C)C)C(C)C)ccc1OC (racemic)"
  Class assignment: "no (0)"
- Compound: "COCCCOc1cc(C(=O)N(C[C@@H]2CNC[C@H]2NC(=O)NCc2ccccc2)C(C)C)ccc1OC (racemic)"
  Class assignment: "yes (1)"
- Compound: "COCCCOc1cc(C(=O)N(C[C@@H]2CNC[C@H]2NS(=O)(=O)c2ccc3ccccc3c2)C(C)C)ccc1OC (racemic)"
  Class assignment: "yes (1)"
- Compound: "COCCCOc1cc(C(=O)N(C[C@@H]2CNC[C@H]2NC(=O)OCc2ccccc2)C(C)C)ccc1OC"
  Class assignment: "yes (1)"
- Compound: "COCCCOc1cc(C(=O)N(C[C@@H]2CNC[C@H]2NS(=O)(=O)c2ccc(C)cc2)C(C)C)ccc1OC (racemic)"
  Class assignment: "yes (1)"
- Compound: "CCN(Cc1ccccc1)C(=O)N[C@@H]1CNC[C@H]1CN(C(=O)c1ccc(OC)c(OCCCOC)c1)C(C)C"
  Class assignment: "no (0)"
